assay name: Bidirectional Caco-2 cell permeability
Assay type: in vitro ADME
measurement setup: human, LC-MS
Description: PAMPA and Caco-2 membrane permeability assays […] MS) after 5 hours. Bidirectional Caco-2 cell permeability assay was performed by Quintara Discovery. Compounds were analyzed at 10 µM and measured by LC-MS after 1 hour.
observable: Papp B→A at 1 h, 10 µM (×10⁻⁶ cm/s)
I only need the number, in ×10⁻⁶ cm/s, no unit after it.

Query: Annotate the molecule CO[C@H]1C[C@@H]2CC[C@@H](C)[C@@](O)(O2)C(=O)C(=O)N2CCCC[C@H]2C(=O)O[C@H]([C@H](C)C[C@@H]2CC[C@@H](O)[C@H](OC)C2)C/C(=N/O)[C@H](C)/C=C(\C)[C@@H](O)[C@@H](OC)C(=O)[C@H](C)C[C@H](C)/C=C/C=C/C=C/1C with its measured Papp B→A at 1 h, 10 µM.
Reply: 1.6

Query: Report measured Papp B→A at 1 h, 10 µM; entry is C=CCO/N=C1/C[C@@H]([C@H](C)C[C@@H]2CC[C@@H](O)[C@H](OC)C2)OC(=O)[C@@H]2CCCCN2C(=O)C(=O)[C@]2(O)O[C@@H](CC[C@H]2C)C[C@H](OC)/C(C)=C/C=C/C=C/[C@@H](C)C[C@@H](C)C(=O)[C@H](OC)[C@H](O)/C(C)=C/[C@H]1C
Reply: 0.4

Query: Name the recorded Papp B→A at 1 h, 10 µM of the item CO[C@H]1C[C@@H]2CC[C@@H](C)[C@@](O)(O2)C(=O)C(=O)N2CCCC[C@H]2C(=O)O[C@H]([C@H](C)C[C@@H]2CC[C@@H](O)[C@H](OC)C2)CC(=O)[C@H](C)/C=C(\C)[C@@H](O)[C@@H](OC)C(=O)[C@H](C)C[C@H](C)/C=C/C=C/C=C/1C [rapamycin, reference compound] in your answer.
Reply: 2.3

Query: Please indicate Papp B→A at 1 h, 10 µM recorded for CCO/N=C1/C[C@@H]([C@H](C)C[C@@H]2CC[C@@H](O)[C@H](OC)C2)OC(=O)[C@@H]2CCCCN2C(=O)C(=O)[C@]2(O)O[C@@H](CC[C@H]2C)C[C@H](OC)/C(C)=C/C=C/C=C/[C@@H](C)C[C@@H](C)C(=O)[C@H](OC)[C@H](O)/C(C)=C/[C@H]1C
Reply: 1

----------
assay name: Bidirectional Caco-2 cell permeability
Format: in vitro ADME
measurement setup: human, LC-MS
observable: Papp A→B at 1 h, 10 µM

Query: Complete the entry with Papp A→B at 1 h, 10 µM for CCO/N=C1/C[C@@H]([C@H](C)C[C@@H]2CC[C@@H](O)[C@H](OC)C2)OC(=O)[C@@H]2CCCCN2C(=O)C(=O)[C@]2(O)O[C@@H](CC[C@H]2C)C[C@H](OC)/C(C)=C/C=C/C=C/[C@@H](C)C[C@@H](C)C(=O)[C@H](OC)[C@H](O)/C(C)=C/[C@H]1C
Reply: < 0.5 ×10⁻⁶ cm/s

Query: Determine from records and report Papp A→B at 1 h, 10 µM for CO[C@H]1C[C@@H]2CC[C@@H](C)[C@@](O)(O2)C(=O)C(=O)N2CCCC[C@H]2C(=O)O[C@H]([C@H](C)C[C@@H]2CC[C@@H](O)[C@H](OC)C2)C/C(=N/O)[C@H](C)/C=C(\C)[C@@H](O)[C@@H](OC)C(=O)[C@H](C)C[C@H](C)/C=C/C=C/C=C/1C
Reply: < 0.3 ×10⁻⁶ cm/s

Query: Please list Papp A→B at 1 h, 10 µM recorded for the compound C=CCO/N=C1/C[C@@H]([C@H](C)C[C@@H]2CC[C@@H](O)[C@H](OC)C2)OC(=O)[C@@H]2CCCCN2C(=O)C(=O)[C@]2(O)O[C@@H](CC[C@H]2C)C[C@H](OC)/C(C)=C/C=C/C=C/[C@@H](C)C[C@@H](C)C(=O)[C@H](OC)[C@H](O)/C(C)=C/[C@H]1C
Reply: < 0.1 ×10⁻⁶ cm/s

Query: Tell us which Papp A→B at 1 h, 10 µM value is on record for CO[C@H]1C[C@@H]2CC[C@@H](C)[C@@](O)(O2)C(=O)C(=O)N2CCCC[C@H]2C(=O)O[C@H]([C@H](C)C[C@@H]2CC[C@@H](O)[C@H](OC)C2)CC(=O)[C@H](C)/C=C(\C)[C@@H](O)[C@@H](OC)C(=O)[C@H](C)C[C@H](C)/C=C/C=C/C=C/1C [rapamycin, reference compound]
Reply: 0.8 ×10⁻⁶ cm/s

----------
assay name: PAMPA membrane permeability
Type: in vitro ADME
measurement setup: 100 µM in PBS, LC-MS
observable: Papp at 5 h, 100 µM (×10⁻⁶ cm/s)
A number alone suffices; assume ×10⁻⁶ cm/s.

Query: Consider the molecule CO[C@H]1C[C@@H]2CC[C@@H](C)[C@@](O)(O2)C(=O)C(=O)N2CCCC[C@H]2C(=O)O[C@H]([C@H](C)C[C@@H]2CC[C@@H](O)[C@H](OC)C2)C/C(=N/O)[C@H](C)/C=C(\C)[C@@H](O)[C@@H](OC)C(=O)[C@H](C)C[C@H](C)/C=C/C=C/C=C/1C and give its recorded Papp at 5 h, 100 µM.
Reply: 0.002

Query: Give reported Papp at 5 h, 100 µM value for C=CCO/N=C1/C[C@@H]([C@H](C)C[C@@H]2CC[C@@H](O)[C@H](OC)C2)OC(=O)[C@@H]2CCCCN2C(=O)C(=O)[C@]2(O)O[C@@H](CC[C@H]2C)C[C@H](OC)/C(C)=C/C=C/C=C/[C@@H](C)C[C@@H](C)C(=O)[C@H](OC)[C@H](O)/C(C)=C/[C@H]1C
Reply: 0.014

Query: Tell me measured Papp at 5 h, 100 µM for CO[C@H]1C[C@@H]2CC[C@@H](C)[C@@](O)(O2)C(=O)C(=O)N2CCCC[C@H]2C(=O)O[C@H]([C@H](C)C[C@@H]2CC[C@@H](O)[C@H](OC)C2)CC(=O)[C@H](C)/C=C(\C)[C@@H](O)[C@@H](OC)C(=O)[C@H](C)C[C@H](C)/C=C/C=C/C=C/1C [rapamycin, reference compound] please.
Reply: 0.209

Query: Using known records, supply Papp at 5 h, 100 µM for CCO/N=C1/C[C@@H]([C@H](C)C[C@@H]2CC[C@@H](O)[C@H](OC)C2)OC(=O)[C@@H]2CCCCN2C(=O)C(=O)[C@]2(O)O[C@@H](CC[C@H]2C)C[C@H](OC)/C(C)=C/C=C/C=C/[C@@H](C)C[C@@H](C)C(=O)[C@H](OC)[C@H](O)/C(C)=C/[C@H]1C
Reply: 0.053
